- Tested on: MB-231
- ASSAY_METHOD_TEXT: SRB colorimetric assay of cell growth and viability, MB-231
- Format: cell-based, human
- STUDY_CONDITIONS: read-out: LC50 (lethal concentration at 50%), MB-231 cells, 48 hours exposure
MEASUREMENT_KIND: CC50 (µM)
The reply should be a number in µM, with the unit left off.

Lookup: Could you share which CC50 value was measured for C/C=C1\NC(=O)[C@H](Cc2ccccc2)NC(=O)[C@@H](C(C)C)NC(=O)[C@@H]([C@@H](C)CC)NC(=O)[C@H](NC(=O)[C@H](NC(=O)[C@H](CCCN)NC(=O)[C@H]2CCCN2C(=O)[C@H](NC(=O)[C@@H](NC(=O)[C@@H](NC(=O)[C@H](NC(=O)CCCC(C)C)C(C)C)[C@@H](C)O)C(C)C)C(C)C)[C@@H](C)CC)[C@@H](C)OC(=O)[C@@H](C(C)C)NC1=O [Compound 110, [D-Val^1]-KF] ?
Found: 6.28

Lookup: Next record, please: C/C=C1\NC(=O)[C@H](Cc2ccccc2)NC(=O)[C@@H](C(C)C)NC(=O)[C@@H]([C@@H](C)CC)NC(=O)[C@H](NC(=O)[C@H](NC(=O)[C@H](CCCN)NC(=O)[C@H]2CCCN2C(=O)[C@H](NC(=O)[C@@H](NC(=O)[C@@H](NC(=O)[C@H](NC(=O)CCCC(C)C)C(C)C)[C@@H](C)O)C(C)C)C(C)C)[C@H](C)CC)[C@@H](C)OC(=O)[C@H](C(C)C)NC1=O [Compound 104, [D-Ile^7]-KF]
Found: 5.59

###

Give measured CC50 for each item. Keep answers brief.
- Tested on: HeLa-APL
- ASSAY_METHOD_TEXT: SRB colorimetric assay of cell growth and viability, HeLa-APL
- Format: cell-based, human
- STUDY_CONDITIONS: 48 hours exposure; read-out: LC50 HELA-APL
Where a SMILES comes first, the peptide text is derived from it. Bridges are numbered along the chain shown (N, C = ends). [ ]: non-standard residue; d: D form. The star is where a group is joined. d(aIle) = CC[C@H](C)[C@@H](N)C(=O)O; d(aThr) = C[C@@H](O)[C@@H](N)C(=O)O; Hexanoyl(5-Me) = CC(C)CCCC(=O)*; Orn = NCCC[C@H](N)C(=O)O; Dhb = C/C=C(\N)C(=O)O
The reply should be a number in µM, with the unit left off.

Lookup: Could you share which CC50 value was measured for C/C=C1\NC(=O)[C@H](Cc2ccccc2)NC(=O)[C@@H](C(C)C)NC(=O)[C@@H]([C@@H](C)CC)NC(=O)[C@H](NC(=O)[C@H](NC(=O)[C@H](CCCCN)NC(=O)[C@H]2CCCN2C(=O)[C@H](NC(=O)[C@@H](NC(=O)[C@@H](NC(=O)[C@H](NC(=O)CC[C@@H](C)CC)C(C)C)[C@@H](C)O)C(C)C)C(C)C)[C@@H](C)CC)[C@@H](C)OC(=O)[C@H](C(C)C)NC1=O [Compound 30, [Lys^8, (4S)-MeHex^14]-KF] ?
Found: 4.58

Lookup: Next record, please: C/C=C1\NC(=O)[C@H](Cc2ccccc2)NC(=O)[C@@H](C(C)C)NC(=O)[C@@H]([C@@H](C)CC)NC(=O)[C@H](NC(=O)[C@H](NC(=O)[C@H](CCCN)NC(=O)[C@H]2CCCN2C(=O)[C@H](NC(=O)[C@@H](NC(=O)[C@H](CC(C)C)NC(=O)CCCC(C)C)C(C)C)C(C)C)[C@@H](C)CC)[C@@H](C)OC(=O)[C@H](C(C)C)NC1=O [Compound 54, [Leu^12, noD-Val^13]-KF] ({Hexanoyl(5-Me)}-LV[dV][dP][Orn][d(aIle)][d(aThr)][d(aIle)][dV]F[Dhb]V; ester 7-C)
Found: 3.88

Lookup: Next record, please: C/C=C1\NC(=O)[C@H](Cc2ccccc2)NC(=O)[C@@H](C(C)C)NC(=O)[C@@H]([C@@H](C)CC)NC(=O)[C@H](NC(=O)[C@H](NC(=O)[C@H](CCCN)NC(=O)[C@H]2CCCN2C(=O)[C@H](NC(=O)[C@@H](NC(=O)[C@@H](NC(=O)[C@@H](NC(=O)CCCC(C)C)C(C)C)[C@@H](C)O)C(C)C)C(C)C)[C@@H](C)CC)[C@@H](C)OC(=O)[C@H](C(C)C)NC1=O [Compound 38, [Val^13]-KF]
Found: 4.49

The measurements presented in this section are drawn from patent US20070117743A1.
